Values were extracted from ChEMBL document CHEMBL4130445.

Let's look at some compounds and their measured viability at 48 h, 40 µM.
# assay: Cytotoxicity in mouse BV2 cells assessed as cell viability at 40 uM incubated for 48 hrs by MTT assay (reference value: 100%)
# Assay type: cell-based, BV-2
# conditionParameters: read-out: Activity
Give the number; % is assumed, so skip it.

Below, each entry is followed by its recorded viability at 48 h, 40 µM result.
1. O=C1COCCN1c1ccc(/N=C/c2cn(CCCn3cc(/C=N/c4ccc(N5CCOCC5=O)cc4)c4ccccc43)c3ccccc23)cc1	79.8
2. Cc1ccc(S(=O)(=O)n2cc(/C=N\c3ccc(N4CCOCC4=O)cc3)c3ccccc32)cc1	58.1
3. O=C1COCCN1c1ccc(/N=C\c2cn(Cc3ccccc3)c3ccccc23)cc1	69.5

Ask | Which viability at 48 h, 40 µM reading was recorded for the compound `O=C1COCCN1c1ccc(/N=C\c2cn(C(=O)c3ccccc3)c3ccccc23)cc1` ?
Reply | 72.6

Ask | What about `O=C1COCCN1c1ccc(/N=C\c2cn(Cc3ccc(F)cc3)c3ccccc23)cc1` ?
Reply | 77.7

Ask | What about `O=C1COCCN1c1ccc(/N=C\c2c[nH]c3ccccc23)cc1` ?
Reply | 105

Ask | What about `O=C1COCCN1c1ccc(/N=C\c2cn(C(=O)c3ccc(Cl)cc3)c3ccccc23)cc1` ?
Reply | 96.6

* * *

Let's look at some molecules and their measured viability at 48 h, 60 µM.
# assay: Cytotoxicity in mouse BV2 cells assessed as cell viability at 60 uM incubated for 48 hrs by MTT assay (reference value: 100%)
# Type: cell-based, BV-2
# conditionParameters: read-out: Activity
Give the number; % is assumed, so skip it.

1. O=C1COCCN1c1ccc(/N=C\c2cn(Cc3ccc(F)cc3)c3ccccc23)cc1	67.4
2. O=C1COCCN1c1ccc(/N=C\c2cn(Cc3ccccc3)c3ccccc23)cc1	65
3. Cc1ccc(S(=O)(=O)n2cc(/C=N\c3ccc(N4CCOCC4=O)cc3)c3ccccc32)cc1	56

Ask | Which viability at 48 h, 60 µM reading was recorded for the molecule `O=C1COCCN1c1ccc(/N=C\c2cn(C(=O)c3ccccc3)c3ccccc23)cc1` ?
Reply | 57.5

Ask | What about `O=C1COCCN1c1ccc(/N=C\c2cn(C(=O)c3ccc(Cl)cc3)c3ccccc23)cc1` ?
Reply | 84.2

Ask | What about `O=C1COCCN1c1ccc(/N=C/c2cn(CCCn3cc(/C=N/c4ccc(N5CCOCC5=O)cc4)c4ccccc43)c3ccccc23)cc1` ?
Reply | 72.4

Ask | What about `O=C1COCCN1c1ccc(/N=C\c2c[nH]c3ccccc23)cc1` ?
Reply | 90.8

* * *

# assay: Cytotoxicity in mouse BV2 cells assessed as cell viability at 15 uM incubated for 48 hrs by MTT assay (reference value: 100%)
# Format: cell-based, BV-2
# conditionParameters: read-out: Activity
recordedEndpoint: viability at 48 h, 15 µM (%)
Give the number; % is assumed, so skip it.

Below, each entry is followed by its recorded viability at 48 h, 15 µM result.
1. O=C1COCCN1c1ccc(/N=C\c2cn(C(=O)c3ccccc3)c3ccccc23)cc1	86.6
2. O=C1COCCN1c1ccc(/N=C/c2cn(CCCn3cc(/C=N/c4ccc(N5CCOCC5=O)cc4)c4ccccc43)c3ccccc23)cc1	93.1
3. Cc1ccc(S(=O)(=O)n2cc(/C=N\c3ccc(N4CCOCC4=O)cc3)c3ccccc32)cc1	71
4. O=C1COCCN1c1ccc(/N=C\c2cn(Cc3ccc(F)cc3)c3ccccc23)cc1	86.1

Ask | Which viability at 48 h, 15 µM reading was recorded for the molecule `O=C1COCCN1c1ccc(/N=C\c2cn(Cc3ccccc3)c3ccccc23)cc1` ?
Reply | 95.7

Ask | What about `O=C1COCCN1c1ccc(/N=C\c2c[nH]c3ccccc23)cc1` ?
Reply | 100

Ask | What about `O=C1COCCN1c1ccc(/N=C\c2cn(C(=O)c3ccc(Cl)cc3)c3ccccc23)cc1` ?
Reply | 105

* * *

Let's look at some compounds and their measured viability at 48 h, 1 µM.
# assay: Cytotoxicity in mouse BV2 cells assessed as cell viability at 1 uM incubated for 48 hrs by MTT assay (reference value: 100%)
# Type: cell-based, BV-2
# conditionParameters: read-out: Activity
Give the number; % is assumed, so skip it.

Below, each entry is followed by its recorded viability at 48 h, 1 µM result.
1) O=C1COCCN1c1ccc(/N=C\c2cn(Cc3ccc(F)cc3)c3ccccc23)cc1	87.8
2) O=C1COCCN1c1ccc(/N=C\c2cn(C(=O)c3ccc(Cl)cc3)c3ccccc23)cc1	97.6
3) O=C1COCCN1c1ccc(/N=C\c2c[nH]c3ccccc23)cc1	105
4) O=C1COCCN1c1ccc(/N=C\c2cn(Cc3ccccc3)c3ccccc23)cc1	89.3
5) O=C1COCCN1c1ccc(/N=C/c2cn(CCCn3cc(/C=N/c4ccc(N5CCOCC5=O)cc4)c4ccccc43)c3ccccc23)cc1	97.1
6) Cc1ccc(S(=O)(=O)n2cc(/C=N\c3ccc(N4CCOCC4=O)cc3)c3ccccc32)cc1	92.1

Ask | Which viability at 48 h, 1 µM reading was recorded for the compound `O=C1COCCN1c1ccc(/N=C\c2cn(C(=O)c3ccccc3)c3ccccc23)cc1` ?
Reply | 109

* * *

# assay: Cytotoxicity in mouse BV2 cells assessed as cell viability at 100 uM incubated for 48 hrs by MTT assay (reference value: 100%)
# Format: cell-based, BV-2
# conditionParameters: read-out: Activity
Let's look at some compounds and their measured viability at 48 h, 100 µM.
Give the number; % is assumed, so skip it.

Below, each entry is followed by its recorded viability at 48 h, 100 µM result.
1. O=C1COCCN1c1ccc(/N=C/c2cn(CCCn3cc(/C=N/c4ccc(N5CCOCC5=O)cc4)c4ccccc43)c3ccccc23)cc1	61.4
2. O=C1COCCN1c1ccc(/N=C\c2cn(C(=O)c3ccc(Cl)cc3)c3ccccc23)cc1	80.5
3. O=C1COCCN1c1ccc(/N=C\c2c[nH]c3ccccc23)cc1	101
4. O=C1COCCN1c1ccc(/N=C\c2cn(Cc3ccccc3)c3ccccc23)cc1	56.2
5. O=C1COCCN1c1ccc(/N=C\c2cn(C(=O)c3ccccc3)c3ccccc23)cc1	52.9

Ask | Which viability at 48 h, 100 µM reading was recorded for the compound `Cc1ccc(S(=O)(=O)n2cc(/C=N\c3ccc(N4CCOCC4=O)cc3)c3ccccc32)cc1` ?
Reply | 57.4

Ask | What about `O=C1COCCN1c1ccc(/N=C\c2cn(Cc3ccc(F)cc3)c3ccccc23)cc1` ?
Reply | 55.5

* * *

Let's look at some molecules and their measured viability at 48 h, 80 µM.
# assay: Cytotoxicity in mouse BV2 cells assessed as cell viability at 80 uM incubated for 48 hrs by MTT assay (reference value: 100%)
# Assay type: cell-based, BV-2
# conditionParameters: read-out: Activity
Give the number; % is assumed, so skip it.

1) O=C1COCCN1c1ccc(/N=C/c2cn(CCCn3cc(/C=N/c4ccc(N5CCOCC5=O)cc4)c4ccccc43)c3ccccc23)cc1	67.6

Ask | Which viability at 48 h, 80 µM reading was recorded for the molecule `O=C1COCCN1c1ccc(/N=C\c2c[nH]c3ccccc23)cc1` ?
Reply | 97.8

Ask | What about `O=C1COCCN1c1ccc(/N=C\c2cn(Cc3ccc(F)cc3)c3ccccc23)cc1` ?
Reply | 59

Ask | What about `O=C1COCCN1c1ccc(/N=C\c2cn(C(=O)c3ccccc3)c3ccccc23)cc1` ?
Reply | 58.4

Ask | What about `Cc1ccc(S(=O)(=O)n2cc(/C=N\c3ccc(N4CCOCC4=O)cc3)c3ccccc32)cc1` ?
Reply | 57.8

Ask | What about `O=C1COCCN1c1ccc(/N=C\c2cn(Cc3ccccc3)c3ccccc23)cc1` ?
Reply | 58.7

Ask | What about `O=C1COCCN1c1ccc(/N=C\c2cn(C(=O)c3ccc(Cl)cc3)c3ccccc23)cc1` ?
Reply | 90.3

* * *

# assay: Cytotoxicity in mouse BV2 cells assessed as cell viability at 10 uM incubated for 48 hrs by MTT assay (reference value: 100%)
# Type: cell-based, BV-2
# conditionParameters: read-out: Activity
Rule: measured viability at 48 h, 10 µM below 90% gets criterion met; anything equal to or greater than 90% gets criterion not met.

1) O=C1COCCN1c1ccc(/N=C\c2c[nH]c3ccccc23)cc1	criterion not met

Now look at this entry.
Ask | Say whether its viability at 48 h, 10 µM is strictly beneath 90%. Entry: `Cc1ccc(S(=O)(=O)n2cc(/C=N\c3ccc(N4CCOCC4=O)cc3)c3ccccc32)cc1`
Reply | criterion met

* * *

# assay: Cytotoxicity in mouse BV2 cells assessed as cell viability at 5 uM incubated for 48 hrs by MTT assay (reference value: 100%)
# Assay type: cell-based, BV-2
# conditionParameters: read-out: Activity
recordedEndpoint: viability at 48 h, 5 µM (%)
Give the number; % is assumed, so skip it.

1) O=C1COCCN1c1ccc(/N=C\c2c[nH]c3ccccc23)cc1	101
2) O=C1COCCN1c1ccc(/N=C\c2cn(Cc3ccc(F)cc3)c3ccccc23)cc1	69.3

Ask | Which viability at 48 h, 5 µM reading was recorded for the molecule `O=C1COCCN1c1ccc(/N=C/c2cn(CCCn3cc(/C=N/c4ccc(N5CCOCC5=O)cc4)c4ccccc43)c3ccccc23)cc1` ?
Reply | 94.1

Ask | What about `O=C1COCCN1c1ccc(/N=C\c2cn(Cc3ccccc3)c3ccccc23)cc1` ?
Reply | 84

Ask | What about `O=C1COCCN1c1ccc(/N=C\c2cn(C(=O)c3ccc(Cl)cc3)c3ccccc23)cc1` ?
Reply | 93.6

Ask | What about `O=C1COCCN1c1ccc(/N=C\c2cn(C(=O)c3ccccc3)c3ccccc23)cc1` ?
Reply | 87.3

Ask | What about `Cc1ccc(S(=O)(=O)n2cc(/C=N\c3ccc(N4CCOCC4=O)cc3)c3ccccc32)cc1` ?
Reply | 89.1
